Here is a set of compounds with reported Ki for Tyrosinase (Agaricus bisporus, UniProt O42713), compiled from the literature.
Numeric answer only, unit µM assumed.

Sample records with Ki:
- COc1cccc(OC(=O)COC(=O)c2ccc(O)cc2O)c1: 130
- CCCOC1Cc2c(C(C)=O)c(O)c3ccccc3c2O1 (configuration not stated): 11.2
- O/N=C(\C=C\c1cccnc1)c1cc2ccccc2cc1O: 6.46

Which Ki is listed for `COC(=O)CNC(=O)COc1ccc(C=O)cc1` ?
117

Thanks! And `COc1ccc(NC2=NC(=O)/C(=C/c3cn(-c4ccccc4)nc3-c3cccc(Cl)c3)S2)c(OC)c1` ?
21.5

Same question, `Sc1nnc(-c2cccc(OCc3ccccc3)c2)o1` this time
3.64

Try the compound `COc1ccccc1-c1nnc(SCC(=O)Nc2ccccc2)o1`
0.0031

Now consider COC(=O)C(C)NC(=O)COc1ccc(C=O)cc1 (configuration not stated) and answer again.
125

Another compound: `COc1cc(C(C)=O)ccc1OCc1cn(Cc2cc(=O)c(O)co2)nn1`
0.07

And then `OC[C@H]1O[C@@H](n2cnc3c(S)ncnc32)[C@H](O)[C@@H]1O` , what is it?
8

Same question for `Sc1nnc(Cc2nnc(S)o2)o1` please.
4.42

Quick one: `Nn1c(-c2ccncc2)n[nH]c1=S`
1.01

---

Recorded log10(Ki) for compounds tested on Tyrosinase (Agaricus bisporus), drawn from a number of studies.
Sequence (O42713 whole entry): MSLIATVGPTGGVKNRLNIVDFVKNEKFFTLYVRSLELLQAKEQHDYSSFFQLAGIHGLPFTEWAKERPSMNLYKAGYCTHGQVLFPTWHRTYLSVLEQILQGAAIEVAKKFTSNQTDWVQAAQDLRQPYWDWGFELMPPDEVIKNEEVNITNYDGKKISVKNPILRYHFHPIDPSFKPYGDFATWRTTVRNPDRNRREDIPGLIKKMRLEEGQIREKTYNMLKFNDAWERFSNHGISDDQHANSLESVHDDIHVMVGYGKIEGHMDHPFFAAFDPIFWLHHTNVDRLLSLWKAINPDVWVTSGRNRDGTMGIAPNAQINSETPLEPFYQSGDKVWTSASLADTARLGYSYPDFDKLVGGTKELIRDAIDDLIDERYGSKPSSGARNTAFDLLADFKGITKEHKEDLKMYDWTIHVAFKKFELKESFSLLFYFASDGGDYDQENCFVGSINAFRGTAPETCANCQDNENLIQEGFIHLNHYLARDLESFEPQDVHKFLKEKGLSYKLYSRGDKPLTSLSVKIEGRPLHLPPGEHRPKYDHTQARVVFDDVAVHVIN
Scale: log10; quantity: Ki; unit before log: µM

- COc1ccc(NC2=NC(=O)/C(=C/c3cn(-c4ccccc4)nc3-c3ccc(Br)cc3)S2)c(OC)c1: 0.98
- COc1ccc(NC2=NC(=O)/C(=C/c3cn(-c4ccccc4)nc3-c3ccc(F)cc3)S2)c(OC)c1: 0.86
- Sc1nnc(C(c2ccccc2)c2ccccc2)o1: 0.83
- COc1cc(-c2ccc(C(=O)O)cc2)cc(OC)c1O: 1.58
- O=C1/C(=C\c2ccc(O)c(O)c2)Cc2ccccc21: 0.94
- S=c1[nH]nc(C(c2ccccc2)c2ccccc2)s1: 0.72

Field: next compound
Value wanted: log10(Ki) (Tyrosinase (Agaricus bisporus)) of entry `CCCCC(=O)NC(=S)Nc1ccc(OC)cc1`
0.04

---

# log10 of Ki against UniProt:O42713, merged from multiple literature sources
In our notation, the value equals log10 of Ki in µM.

* COc1cccc(OC(=O)COC(=O)/C=C/c2ccc(O)cc2)c1 | 1.04

What value of log10 of Ki has been recorded for this entry: `Sc1nnc(-c2ccccc2)s1`
0.12

One more compound: `COc1cc(-c2ccc(C(=O)O)c(O)c2)cc(OC)c1O`
1.18

Could you do the same for `Nc1ccc(S(=O)(=O)Nc2ccc(C(=O)/C=C/c3ccc(O)cc3)cc2)cc1` , please?
1.22

One more compound: `O=C(/C=C/c1ccc(O)cc1)c1ccc(NS(=O)(=O)c2ccc(O)cc2)cc1`
1.40

Please answer likewise for `S=c1[nH]nc(-c2n[nH]c(=S)s2)s1`
0.46

Ok, now `Oc1cccc(-c2nnc(S)o2)c1`
1.27

Next up: `CCCCNC(=O)c1ccc(-c2cc(OC)c(O)c(OC)c2)cc1`
1.49

Same for `O=C(/C=C/c1ccc(O)cc1)c1ccc(NS(=O)(=O)c2ccc([N+](=O)[O-])cc2)cc1`
1.06

Then this compound: `S=c1[nH]nc(-c2n[nH]c(=S)o2)o1`
1.84
